molecular target: Norepinephrine transporter (Rattus norvegicus, UniProt Q9WTR4); test: In vitro inhibitory activity against radioligand [3H]-[…] binding to norepinephrine transporter (NET) in rat cortical tissue
Sequence (Q9WTR4 whole entry): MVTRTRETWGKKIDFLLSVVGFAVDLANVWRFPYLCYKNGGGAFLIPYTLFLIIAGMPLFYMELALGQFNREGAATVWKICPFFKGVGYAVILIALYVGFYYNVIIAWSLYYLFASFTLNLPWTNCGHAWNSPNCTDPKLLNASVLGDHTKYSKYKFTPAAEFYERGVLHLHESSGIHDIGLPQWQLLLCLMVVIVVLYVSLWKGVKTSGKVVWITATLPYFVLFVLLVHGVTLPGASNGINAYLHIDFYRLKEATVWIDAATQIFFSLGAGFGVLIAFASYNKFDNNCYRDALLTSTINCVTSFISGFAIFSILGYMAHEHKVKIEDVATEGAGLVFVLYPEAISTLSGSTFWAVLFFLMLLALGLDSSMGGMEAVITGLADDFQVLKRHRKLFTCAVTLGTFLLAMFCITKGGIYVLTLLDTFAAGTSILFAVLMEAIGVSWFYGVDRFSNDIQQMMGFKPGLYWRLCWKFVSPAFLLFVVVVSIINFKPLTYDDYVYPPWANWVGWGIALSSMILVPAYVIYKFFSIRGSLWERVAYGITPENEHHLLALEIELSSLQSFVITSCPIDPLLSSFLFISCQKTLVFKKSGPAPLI
quantity measured: pIC50
As a rule, pIC50 stands for the negative log10 of the concentration, concentration in M.

Please report the recorded pIC50 for CCc1ccc(C2CC3CC[C@H](C2C(=O)OC)N3C)cc1 (some centres undefined) .
7.41

And for CCc1ccc(C2CC3CC[C@@H](N3)C2C(=O)OC)cc1I (some centres undefined) ?
6.83

And for COC(=O)C1C(c2cccc(I)c2)CC2CC[C@H]1N2C (some centres undefined) ?
5.80

And for COC(=O)C1C(c2ccc(Cl)cc2)CC2CC[C@H]1N2 (some centres undefined) ?
8.38

====

Listed next: entries and their corresponding pIC50.
molecular target: Sodium-dependent serotonin transporter (Rattus norvegicus)
Sequence (P31652 whole entry): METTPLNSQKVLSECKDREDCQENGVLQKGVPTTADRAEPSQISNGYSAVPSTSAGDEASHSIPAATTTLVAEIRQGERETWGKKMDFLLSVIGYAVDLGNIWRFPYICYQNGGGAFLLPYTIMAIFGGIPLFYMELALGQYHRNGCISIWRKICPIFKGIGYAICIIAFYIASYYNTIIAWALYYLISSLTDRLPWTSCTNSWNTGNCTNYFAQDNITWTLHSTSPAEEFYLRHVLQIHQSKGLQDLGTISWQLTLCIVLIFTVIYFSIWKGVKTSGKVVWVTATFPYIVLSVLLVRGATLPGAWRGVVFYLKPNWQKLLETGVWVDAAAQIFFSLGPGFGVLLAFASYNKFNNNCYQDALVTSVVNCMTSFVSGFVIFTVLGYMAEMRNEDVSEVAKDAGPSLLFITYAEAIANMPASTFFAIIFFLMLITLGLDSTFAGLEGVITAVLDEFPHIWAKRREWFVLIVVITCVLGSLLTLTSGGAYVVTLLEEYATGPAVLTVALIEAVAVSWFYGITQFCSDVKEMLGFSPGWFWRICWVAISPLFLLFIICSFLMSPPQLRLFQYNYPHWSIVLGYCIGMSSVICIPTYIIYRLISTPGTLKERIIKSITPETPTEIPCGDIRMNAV
As a rule, pIC50 stands for the negative log10 of the concentration, concentration in M.

| compound | pIC50 |
| --- | --- |
| COC(=O)C1C(c2ccc(Cl)cc2)CC2CC[C@H]1N2 (some centres not stated) | 8.26 |

Now turn to the next compound.
Please report the recorded pIC50 for COC(=O)C1C(c2cccc(I)c2)CC2CC[C@H]1N2C (some centres not stated) .
7.41

====

Listed next: entries and their corresponding Ratio.
biological target: Monoamine transporters; serotonin & dopamine (Rattus norvegicus) (UniProt P31652+P23977); test: Selectivity ratio is IC50 value of 5-HTT to that of DAT; assay type: protein assay
Sequence (P31652 whole entry, looked up, one chain of several): as the sequence (P31652 whole entry) above
Number, no unit, nothing else.

Recorded results for 4 compounds are shown here.
| compound | Ratio |
| --- | --- |
| COC(=O)C1C(c2cccc(I)c2)CC2CC[C@H]1N2C (stereo not given in full) | 1.5 |
| CCc1ccc(C2CC3CC[C@@H](N3)C2C(=O)OC)cc1I (stereo not given in full) | 87 |
| CCc1ccc(C2CC3CC[C@@H](N3)C2C(=O)OC)cc1 (stereo not given in full) | 0.2 |
| COC(=O)C1C(c2ccc(Cl)cc2)CC2CC[C@H]1N2 (stereo not given in full) | 9 |

Now turn to the next compound.
Please report the recorded Ratio for CCc1ccc(C2CC3CC[C@H](C2C(=O)OC)N3C)cc1 (stereo not given in full) .
0.52

====

molecular target: Sodium-dependent dopamine transporter (Rattus norvegicus, UniProt P23977)
Sequence (P23977 whole entry): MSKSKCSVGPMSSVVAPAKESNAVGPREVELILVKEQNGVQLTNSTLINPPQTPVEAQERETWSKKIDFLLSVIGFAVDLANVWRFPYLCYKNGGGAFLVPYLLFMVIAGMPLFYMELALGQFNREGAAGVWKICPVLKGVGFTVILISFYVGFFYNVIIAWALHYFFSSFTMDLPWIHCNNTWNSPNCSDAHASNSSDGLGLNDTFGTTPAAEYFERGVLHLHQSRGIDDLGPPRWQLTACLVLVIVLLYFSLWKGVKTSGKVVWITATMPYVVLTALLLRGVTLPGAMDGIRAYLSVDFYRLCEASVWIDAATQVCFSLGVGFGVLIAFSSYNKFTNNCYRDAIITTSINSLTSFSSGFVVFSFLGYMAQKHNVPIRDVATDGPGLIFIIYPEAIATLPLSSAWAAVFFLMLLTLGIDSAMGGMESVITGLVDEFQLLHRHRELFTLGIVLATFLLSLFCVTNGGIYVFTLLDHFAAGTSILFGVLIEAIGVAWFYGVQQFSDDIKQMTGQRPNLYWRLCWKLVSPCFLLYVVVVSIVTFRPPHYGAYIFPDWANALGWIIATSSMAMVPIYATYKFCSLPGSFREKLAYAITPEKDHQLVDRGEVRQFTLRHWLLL
quantity measured: IC50 (nM)
Numeric only. Scale: nM

Recorded results for 2 compounds are shown here.
| compound | measured target | IC50 / nM |
| --- | --- | --- |
| COC(=O)C1C(c2ccc(Cl)cc2)CC2CC[C@H]1N2 (stereo partly drawn) | Sodium-dependent dopamine transporter (Rattus norvegicus, UniProt P23977) | 0.62 |
| COC(=O)C1C(c2cccc(I)c2)CC2CC[C@H]1N2C (stereo partly drawn) | Sodium-dependent dopamine transporter (Rattus norvegicus, UniProt P23977) | 26 |

Please report the recorded IC50 for CCc1ccc(C2CC3CC[C@@H](N3)C2C(=O)OC)cc1I (stereo partly drawn) .
329

Cited source: ChEMBL document CHEMBL1130242
